target: MST2 (Homo sapiens, UniProt Q13188)
Sequence (Q13188 whole entry): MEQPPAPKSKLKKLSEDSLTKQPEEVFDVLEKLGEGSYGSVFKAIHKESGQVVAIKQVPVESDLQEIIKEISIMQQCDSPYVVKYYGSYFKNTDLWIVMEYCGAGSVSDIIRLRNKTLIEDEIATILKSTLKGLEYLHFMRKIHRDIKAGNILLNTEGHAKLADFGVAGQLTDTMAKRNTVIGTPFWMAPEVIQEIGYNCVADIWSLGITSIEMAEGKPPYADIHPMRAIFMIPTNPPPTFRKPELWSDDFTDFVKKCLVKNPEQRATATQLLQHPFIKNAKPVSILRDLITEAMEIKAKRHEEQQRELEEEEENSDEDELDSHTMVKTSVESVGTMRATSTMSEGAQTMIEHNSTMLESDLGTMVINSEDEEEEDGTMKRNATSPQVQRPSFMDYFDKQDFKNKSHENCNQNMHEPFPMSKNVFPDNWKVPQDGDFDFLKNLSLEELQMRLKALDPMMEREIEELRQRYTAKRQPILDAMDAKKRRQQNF
VALUE TYPE: pKd
Answers are plain numbers, as −log10 of the molar value.

stdin: What pKd value was documented for this compound, `CN1CCCN(C(=O)c2cccc(-c3ccc(C=C4C(=O)Nc5ccc(Cl)cc54)o3)c2)CC1` ?
stdout: 6.47

====

tested on: HGC-27 cells; assay: Cell viability assay in HGC-27 cells; assay type: cell-based, human; conditions: Homo sapiens, HGC-27, cell viability; read-out: IC50 values in HGC-27 cells
So I've got a bunch of compounds here, and I need their IC50 values.
Numbers only, in µM.

Consider the following illustrative entries.
INSERT INTO measurements (compound, readout_unit, quantitative_readout) VALUES
  ('Oc1cc2c(cc1O)C1c3ccc(O)c(O)c3OCC1(O)C2 (stereo not drawn) [HAEMATOXYLIN]', 'µM', 37.9),
  ('O=c1c2ccccc2[se]n1-c1ccccc1 [Ebselen]', 'µM', 27.5);

stdin: What IC50 value was documented for this compound, CN(C)C(=S)SSC(=S)N(C)C [TH, thiram] ?
stdout: 0.4
